Reported EC50 values are given for each entry in this list.
molecular target: human wild type-CFTR (Homo sapiens, UniProt P13569); experiment: Cell-based YFP assay; design: expressed in transfected cells; host or cells: CHO-K1 (Chinese hamster ovary); settings: CHO-K1 cells expressing human wild type-CFTR and YFP-H148Q/I152L; forskolin 20 μM = 100% activity; read-out: Cell-based YFP Assay (EC50) Concentration Range
Sequence (P13569 whole entry): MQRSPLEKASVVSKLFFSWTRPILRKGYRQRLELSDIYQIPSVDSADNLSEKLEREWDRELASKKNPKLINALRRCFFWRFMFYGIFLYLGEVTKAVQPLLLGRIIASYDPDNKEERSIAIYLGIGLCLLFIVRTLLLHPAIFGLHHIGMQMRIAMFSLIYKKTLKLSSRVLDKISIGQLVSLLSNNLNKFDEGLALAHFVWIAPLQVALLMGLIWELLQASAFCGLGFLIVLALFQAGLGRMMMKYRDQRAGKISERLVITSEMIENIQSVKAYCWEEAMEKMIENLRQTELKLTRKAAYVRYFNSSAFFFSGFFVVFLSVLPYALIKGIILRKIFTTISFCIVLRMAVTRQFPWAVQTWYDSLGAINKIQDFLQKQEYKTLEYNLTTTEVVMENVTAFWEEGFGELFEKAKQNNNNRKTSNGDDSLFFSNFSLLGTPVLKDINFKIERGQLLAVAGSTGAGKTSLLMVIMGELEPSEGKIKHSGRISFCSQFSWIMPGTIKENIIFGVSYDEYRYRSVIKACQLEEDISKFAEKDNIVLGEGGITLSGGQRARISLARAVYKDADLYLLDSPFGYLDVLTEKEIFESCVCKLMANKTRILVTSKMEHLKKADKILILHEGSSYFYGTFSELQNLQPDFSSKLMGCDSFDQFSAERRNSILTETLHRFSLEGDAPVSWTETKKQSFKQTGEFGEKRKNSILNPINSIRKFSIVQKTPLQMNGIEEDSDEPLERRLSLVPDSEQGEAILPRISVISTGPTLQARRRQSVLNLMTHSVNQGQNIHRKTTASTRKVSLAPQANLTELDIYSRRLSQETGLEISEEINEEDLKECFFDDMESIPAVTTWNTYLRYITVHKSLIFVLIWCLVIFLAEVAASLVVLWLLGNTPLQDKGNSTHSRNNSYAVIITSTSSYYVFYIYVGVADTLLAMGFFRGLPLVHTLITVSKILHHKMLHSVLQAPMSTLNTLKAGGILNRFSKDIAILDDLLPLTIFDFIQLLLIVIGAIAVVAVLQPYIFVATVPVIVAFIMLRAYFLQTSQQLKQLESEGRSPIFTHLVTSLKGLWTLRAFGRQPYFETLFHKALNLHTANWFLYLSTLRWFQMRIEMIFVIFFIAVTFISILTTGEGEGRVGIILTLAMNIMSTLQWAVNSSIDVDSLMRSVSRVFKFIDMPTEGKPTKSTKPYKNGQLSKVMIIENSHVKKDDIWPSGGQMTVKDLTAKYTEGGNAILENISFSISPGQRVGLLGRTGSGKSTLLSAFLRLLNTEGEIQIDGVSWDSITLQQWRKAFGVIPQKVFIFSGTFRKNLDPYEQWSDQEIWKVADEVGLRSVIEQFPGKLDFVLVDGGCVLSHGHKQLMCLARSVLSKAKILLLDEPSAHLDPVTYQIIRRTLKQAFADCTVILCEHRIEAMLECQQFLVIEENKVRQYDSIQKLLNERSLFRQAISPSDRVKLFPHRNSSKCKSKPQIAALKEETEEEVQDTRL

Recorded EC50, per entry:
COc1ccc(-c2ccnc3cc(C(=O)Nc4ccc(OC(=O)CNC(=O)OC(C)(C)C)cc4)nn23)cc1OC :: < 200 nM
COC(=O)c1ccc(NC(=O)c2cc3nccc(-c4ccc(OC)c(OC)c4)n3n2)c(C)c1 :: < 200 nM

Task item: Entry "COc1ccc(-c2ccnc3cc(C(=O)Nc4ccc(C(=O)N5CCN(C)CC5)c(O)c4)nn23)cc1OC" has what EC50?
Reply: < 200 nM

Task item: Sample "COc1ccc(-c2ccnc3cc(C(=O)N[C@H]4CC[C@H](C(=O)N5CCNCC5)CC4)nn23)cc1OC" — what was its EC50?
Reply: ≥ 2000 nM

Task item: Request the reported EC50 associated with "COC(=O)c1ccc(NC(=O)c2cc3nccc(-c4ccc(OC)c(OC)c4)n3n2)c(Cl)c1"
Reply: ≥ 2000 nM

Task item: Fill in the blank: the reported EC50 of "COc1ccc(-c2ccnc3cc(C(=O)Nc4ccc(C(=O)O)cc4)nn23)cc1OC" is ____.
Reply: 200 to 2000 nM

Task item: Requested read-out: EC50. Entry: "COc1ccc(-c2ccnc3cc(C(=O)Nc4ccc(C(=O)OCCN5CCOCC5)cc4)nn23)cc1OC"
Reply: < 200 nM

* * *

Property: pEC50; scope: individual compounds
target: human wild type-CFTR (Homo sapiens, UniProt P13569); test: Cell-based YFP assay; design: expressed in transfected cells; host or cells: CHO-K1 (Chinese hamster ovary); conditions: CHO-K1 cells expressing human wild type-CFTR and YFP-H148Q/I152L; forskolin 20 μM = 100% activity; read-out: Cell-based YFP Assay (EC50) Concentration Range
pEC50: −log10 of the molar value.

Here's what some known entries look like.
COc1ccc(-c2ccnc3cc(C(=O)N4CCN(C(=O)c5cccs5)[C@@H](C)C4)nn23)cc1OC :: > 6.70
COc1ccc(-c2ccnc3cc(C(=O)N4CCc5ccc(C(=O)O)cc5C4)nn23)cc1OC :: ≤ 5.70
COC(=O)[C@@H](C)NC(=O)c1ccc(NC(=O)c2cc3nccc(-c4ccc(OC)c(OC)c4)n3n2)cc1 :: > 6.70
COc1ccc(-c2ccnc3cc(C(=O)Nc4ccc(C(=O)O)c(OC)c4)nn23)cc1OC :: ≤ 5.70
COc1ccc(-c2ccnc3cc(C(=O)Nc4ccc(C(=O)OCCCN5CCOCC5)cc4)nn23)cc1OC :: > 6.70

Task item: Could you share what pEC50 was measured for "COc1ccc(-c2ccnc3cc(C(=O)N4CCc5ccc(C(=O)N6CCOCC6)cc5C4)nn23)cc1OC" , tested on human wild type-CFTR (Homo sapiens, UniProt P13569)?
Reply: ≤ 5.70

Task item: # value lookup — system human wild type-CFTR (Homo sapiens, UniProt P13569), readout pEC50, item "COc1ccc(-c2ccnc3cc(C(=O)Nc4ccc(C(=O)OCCCN5CCOCC5)c(F)c4)nn23)cc1OC"
Reply: 5.70 to 6.70

* * *

molecular target: human wild type-CFTR (Homo sapiens, UniProt P13569); assay: Cell-based YFP assay; design: expressed in transfected cells; host or cells: CHO-K1 (Chinese hamster ovary); conditions: CHO-K1 cells expressing human wild type-CFTR and YFP-H148Q/I152L; forskolin 20 μM = 100% activity; read-out: Cell-based YFP Assay (EC50) Concentration Range
Value type: EC50

Answered examples (6):
COc1ccc(-c2ccnc3cc(C(=O)N4CCN(C(=O)c5ccccc5Cl)[C@@H](C)C4)nn23)cc1OC [Compound 260] :: 0.2 to 2 µM
COc1ccc(-c2ccnc3cc(C(=O)N4CCN(C(=O)c5ccccc5)C(C)(C)C4)nn23)cc1OC [Compound 211] :: 0.2 to 2 µM
COc1ccc(-c2ccnc3cc(C(=O)N[C@H]4CC[C@H](C(N)=O)CC4)nn23)cc1OC [Compound 74] :: ≥ 2 µM
COc1ccc(-c2ccnc3cc(C(=O)NN4CCN(C)CC4)nn23)cc1OC [Compound 68] :: ≥ 2 µM
COC(=O)[C@H](Cc1ccccc1)NC(=O)c1ccc(NC(=O)c2cc3nccc(-c4ccc(OC)c(OC)c4)n3n2)cc1 [Compound 46] :: < 0.2 µM
COc1ccc(-c2ccnc3cc(C(=O)Nc4ccc(N5CCCCC5)cc4)nn23)cc1OC [Compound 269] :: < 0.2 µM

Task item: State the recorded EC50 for this entry: COC(=O)c1ccc(NC(=O)c2cc3nccc(-c4ccc(OC)c(Cl)c4)n3n2)cc1 [Compound 39]
Reply: 0.2 to 2 µM

Task item: Reported EC50 for COc1ccc(-c2ccnc3cc(C(=O)Nc4ccc(NC(=O)CN)cc4)nn23)cc1OC [Compound 283] : what is it?
Reply: 0.2 to 2 µM

* * *

target: Human recombinant PDE4C1 (Homo sapiens, UniProt Q08493); construct: purchased BPS Bioscience; host or cells: insect Sf9 cells; experiment: Human phosphodiesterase 4 (PDE4) inhibition, PDE4C1; assay type: biochemical; conditions: read-out: % inhibition range at 10 uM PDE4C1; 10 uM test compound
Sequence (Q08493 whole entry): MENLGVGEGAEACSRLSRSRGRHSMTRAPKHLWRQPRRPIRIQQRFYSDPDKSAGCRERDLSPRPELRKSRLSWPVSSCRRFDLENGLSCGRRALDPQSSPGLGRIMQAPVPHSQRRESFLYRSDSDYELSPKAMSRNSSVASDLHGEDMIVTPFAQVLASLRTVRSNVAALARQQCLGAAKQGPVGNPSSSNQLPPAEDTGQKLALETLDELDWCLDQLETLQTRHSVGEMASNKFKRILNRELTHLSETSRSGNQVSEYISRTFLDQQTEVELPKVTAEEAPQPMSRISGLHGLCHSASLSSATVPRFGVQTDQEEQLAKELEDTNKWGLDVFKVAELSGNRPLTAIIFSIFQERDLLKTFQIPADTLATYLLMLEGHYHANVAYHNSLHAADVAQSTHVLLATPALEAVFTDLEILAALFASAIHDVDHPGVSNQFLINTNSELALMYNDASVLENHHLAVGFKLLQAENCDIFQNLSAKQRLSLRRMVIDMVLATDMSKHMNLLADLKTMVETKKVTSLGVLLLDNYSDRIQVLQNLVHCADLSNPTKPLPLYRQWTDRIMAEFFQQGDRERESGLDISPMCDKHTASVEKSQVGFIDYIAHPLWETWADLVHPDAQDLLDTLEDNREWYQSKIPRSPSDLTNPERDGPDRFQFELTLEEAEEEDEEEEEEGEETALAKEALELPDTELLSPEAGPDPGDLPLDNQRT
Some compounds, each annotated with its measured inhibition at 10 µM.

Example entries begin here.
COc1ccc(-c2ccnc3cc(C(=O)N4CCN(C(=O)c5ccccc5)[C@@H](C)C4)nn23)cc1OC [Compound 210] :: > 80%
COc1ccc(-c2ccnc3cc(C(=O)Nc4ccc(O)cc4)nn23)cc1OC [Compound 15] :: > 80%
COc1ccc(-c2ccnc3cc(C(=O)N4CC[C@@H](NC(=O)c5ccccc5)C4)nn23)cc1OC [Compound 384] :: 50 to 80%
COC(=O)c1ccc(NC(=O)c2cc3nccc(-c4ccc(OC)c(OC)c4)n3n2)cc1OC [Compound 192] :: > 80%
COC(=O)c1ccc(NC(=O)c2cc3nccc(-c4ccc(OC)c(F)c4)n3n2)cc1 [Compound 33] :: < 50%
COc1ccc(-c2ccnc3cc(C(=O)N4CCN(S(=O)(=O)c5ccccc5)[C@@H](C)C4)nn23)cc1OC [Compound 355] :: > 80%
COc1ccc(-c2ccnc3cc(C(=O)Nc4ccc(C(=O)N5CCN(C)CC5)cc4)nn23)cc1OC [Compound 97] :: > 80%
COc1ccc(-c2ccnc3cc(C(=O)Nc4ccc(C(=O)N[C@H](C(=O)N5CCOCC5)C(C)C)cc4)nn23)cc1OC [Compound 147] :: > 80%
COC(=O)c1ccc(NC(=O)c2cc3ncc(-c4ccc(OC)c(OC)c4)cn3n2)cc1 [Compound 239] :: < 50%
COC(=O)c1ccc(NC(=O)c2cc3nccc(-c4ccc(OC)c(OC)c4)n3n2)c(F)c1 [Compound 136] :: > 80%

Task item: Observed inhibition at 10 µM on Human recombinant PDE4C1 (Homo sapiens, UniProt Q08493) for COc1ccc(-c2ccnc3cc(C(=O)Nc4ccc(OCCN5CCOCC5)cc4)nn23)cc1OC [Compound 198] , please.
Reply: > 80%

Task item: What inhibition at 10 µM appears in the records for this compound with Human recombinant PDE4C1 (Homo sapiens, UniProt Q08493)? COc1ccc(-c2ccnc3cc(C(=O)NC45CCC(C(=O)N6CCN(C)CC6)(CC4)CC5)nn23)cc1OC [Compound 151]
Reply: > 80%

Task item: Find inhibition at 10 µM (Human recombinant PDE4C1 (Homo sapiens, UniProt Q08493)) for the entry COC(=O)c1ccccc1NC(=O)c1cc2nccc(-c3ccc(OC)c(OC)c3)n2n1 [Compound 7]
Reply: < 50%

Task item: Lab note: need inhibition at 10 µM for COc1ccc(-c2ccnc3cc(C(=O)N4CCN(C(=O)c5ccccn5)[C@@H](C)C4)nn23)cc1OC [Compound 380] on Human recombinant PDE4C1 (Homo sapiens, UniProt Q08493), anyone have it?
Reply: 50 to 80%

Task item: // map COc1ccc(-c2ccnc3cc(C(=O)Nc4ccc(N5CCOCC5)cn4)nn23)cc1OC [Compound 205] to recorded inhibition at 10 µM (system: Human recombinant PDE4C1 (Homo sapiens, UniProt Q08493))
Reply: > 80%

* * *

target: human wild type-CFTR (Homo sapiens, UniProt P13569); assay: Cell-based YFP assay; design: expressed in transfected cells; host or cells: CHO-K1 (Chinese hamster ovary); details: CHO-K1 cells expressing human wild type-CFTR and YFP-H148Q/I152L; forskolin 20 μM = 100% activity; read-out: Cell-based YFP Assay (EC50) Concentration Range
Value type: EC50

Sample answers from the record:
COC(=O)c1ccc(NC(=O)c2cc3nccc(-c4ccc(OC)c(F)c4)n3n2)cc1 :: 0.2 to 2 µM
COc1ccc(-c2ccnc3cc(C(=O)Nc4ccc(C(=O)O)cc4C)nn23)cc1OC :: 0.2 to 2 µM
COc1ccc(-c2ccnc3cc(C(=O)Nc4ccc(C(=O)O)c(O)c4)nn23)cc1OC :: 0.2 to 2 µM

Task item: Any idea what EC50 was measured for "COc1ccc(-c2ccnc3cc(C(=O)Nc4ccc(C(=O)N5CCOCC5)c(F)c4)nn23)cc1OC" ?
Reply: < 0.2 µM

Task item: Fill in the blank: the reported EC50 of "COc1ccc(-c2ccnc3cc(C(=O)N4C[C@H](C)N[C@@H](C)C4)nn23)cc1OC" is ____.
Reply: 0.2 to 2 µM

Task item: Please look up its EC50: "COc1ccc(-c2ccnc3cc(C(=O)Nc4ccc(C(=O)NCCN5CCOCC5)cc4)nn23)cc1OC"
Reply: < 0.2 µM

Task item: Could you share which EC50 value was measured for "COc1ccc(-c2ccnc3cc(C(=O)Nc4ccc(C(=O)O)c(F)c4)nn23)cc1OC" ?
Reply: ≥ 2 µM

Task item: Given the compound "COc1ccc(-c2ccnc3cc(C(=O)Nc4ccc(N5CCCC5)cc4)nn23)cc1OC" , what is its reported EC50?
Reply: < 0.2 µM

Task item: What EC50 value was documented for this compound, "COc1ccc(-c2ccnc3cc(C(=O)N4CCN(C(=O)Nc5ccccc5)[C@@H](C)C4)nn23)cc1OC" ?
Reply: < 0.2 µM

Task item: Could you share which EC50 value was measured for "COc1ccc(-c2ccnc3cc(C(=O)N[C@H]4CC[C@H](C(=O)N5CCC(N6CCCCC6)CC5)CC4)nn23)cc1OC" ?
Reply: ≥ 2 µM

Task item: Reported EC50, compound "COc1ccc(-c2ccnc3cc(C(=O)N[C@H]4CC[C@H](C(=O)NC5CCN(C6CCOCC6)CC5)CC4)nn23)cc1OC" : ____
Reply: ≥ 2 µM

Task item: Entry "CCOC(=O)COc1ccc(NC(=O)c2cc3nccc(-c4ccc(OC)c(OC)c4)n3n2)cc1" : reported EC50 = ?
Reply: < 0.2 µM

Task item: Fill in the blank: the reported EC50 of "CCCOC(=O)[C@H]1CC[C@H](NC(=O)c2cc3nccc(-c4ccc(OC)c(OC)c4)n3n2)CC1" is ____.
Reply: 0.2 to 2 µM

Task item: Please give the measured EC50 for this compound: "COc1ccc(-c2ccnc3cc(C(=O)N4CCN(Cc5ccccc5)C(C)(C)C4)nn23)cc1OC"
Reply: 0.2 to 2 µM

Task item: Would you kindly share the measured EC50 for "COc1ccc(-c2ccnc3cc(C(=O)Nc4ccc(N5CCOCC5)cn4)nn23)cc1[N+](=O)[O-]" ?
Reply: ≥ 2 µM

Task item: Quick one: EC50 of "COc1ccc(-c2ccnc3cc(C(=O)NC4CCN(C(=O)CO)CC4)nn23)cc1OC" ?
Reply: ≥ 2 µM
